system: Kidney; assay: Biodistribution in kidney of C57BL/6 mouse bearing mouse B16-F0 cells at 0.74 to 0.92 MBq, iv after 6 hrs; type: ADME, organism-based; conditions: in vivo
Drug uptake overview
assay_readout: Drug uptake (% ID/g)

INSERT INTO measurements (mol_smiles, assay_readout, readout_number) VALUES
  ('CCN(CC)CCNC(=O)c1cnc2cc([125I])ccc2n1.Cl.Cl', 'Drug uptake', 7.69),
  ('CCN(CC)CCNC(=O)c1ccc([125I])nc1.Cl.Cl', 'Drug uptake', 3.5),
  ('CCN(CC)CCNC(=O)c1ccc2cc([125I])ccc2n1.Cl.Cl', 'Drug uptake', 7.6),
  ('CCN(CC)CCNC(=O)c1cc2cc([125I])ccc2[nH]1.Cl', 'Drug uptake', 2.5);

###

Each entry below lists one item and its recorded Ratio value.
test: Ratio of drug level in tumor to brain of C57BL/6 mouse bearing mouse B16-F0 cells at 0.74 to 0.92 MBq, iv after 1 hr; format: ADME, organism-based; settings: in vivo
assay_readout: Ratio

INSERT INTO results (mol_smiles, assay_readout, result) VALUES
  ('CCN(CC)CCNC(=O)c1cc2c([125I])cccc2s1.Cl', 'Ratio', 15.4),
  ('CCN(CC)CCNC(=O)c1ccc2cncc([125I])c2n1.Cl.Cl', 'Ratio', 27.14),
  ('CCN(CC)CCNC(=O)c1ccc2cc([125I])ccc2c1.Cl', 'Ratio', 2.97);

###

assay: Drug excretion in mouse B16-F0 cells bearing C57BL/6 mouse urine at 0.74 to 0.92 MBq, iv after 72 hrs; type: ADME, organism-based; details: in vivo
assay_readout: Activity (%)

INSERT INTO assay_data (mol_smiles, readout_number) VALUES
  ('CCN(CC)CCNC(=O)c1ccc2cncc([125I])c2n1.Cl.Cl', 68.9),
  ('CCN(CC)CCNC(=O)c1cnc2cc([125I])ccc2n1.Cl.Cl', 70.2),
  ('CCN(CC)CCNC(=O)c1ccc(I)cc1', 83.1),
  ('CCN(CC)CCNC(=O)c1ccc([125I])nc1.Cl.Cl', 67.3),
  ('CCN(CC)CCNC(=O)c1cc2cc([125I])ccc2[nH]1.Cl', 21.5),
  ('CCN(CC)CCNC(=O)c1cn2cc([125I])ccc2n1.Cl.Cl', 36.8),
  ('CCN(CC)CCNC(=O)c1cc2cc([125I])ccc2o1.Cl', 21.4),
  ('CCN(CC)CCNC(=O)c1ccc2cc([125I])ccc2c1.Cl', 43.7),
  ('CCN(CC)CCNC(=O)c1nc2cc([125I])ccc2[nH]1.Cl.Cl', 17.1),
  ('CCN(CC)CCNC(=O)c1c[nH]c2ccc([125I])cc2c1=O.Cl.Cl', 23.8);

###

tested on: Liver; assay: Biodistribution in liver of C57BL/6 mouse bearing mouse B16-F0 cells at 0.74 to 0.92 MBq, iv after 1 hr; type: ADME, organism-based; settings: in vivo
Label 0.0 if Drug uptake falls below 5 % ID/g; label 1.0 in every other case.

INSERT INTO results (mol_smiles, measurement_target, classification) VALUES
  ('CCN(CC)CCNC(=O)c1nc2cc([125I])ccc2[nH]1.Cl.Cl', 'Liver', 1.0),
  ('CCN(CC)CCNC(=O)c1c[nH]c2ccc([125I])cc2c1=O.Cl.Cl', 'Liver', 1.0),
  ('CCN(CC)CCNC(=O)c1cc2c([125I])cccc2s1.Cl', 'Liver', 0.0),
  ('CCN(CC)CCNC(=O)c1ccc2cc([125I])ccc2n1.Cl.Cl', 'Liver', 1.0),
  ('CCN(CC)CCNC(=O)c1cnc2cc([125I])ccc2n1.Cl.Cl', 'Liver', 1.0);
